# target system: Homeobox protein Hox-A13 (Mus musculus)
# assay summary: inhibitors of HoxA13-DNA binding, primary screen, biochemical, fluorescence polarization, labeled oligonucleotide (AID 1185)
# condition summary: 15 min, higher = more signal, called active from +8 up or from −8 down
Listed compounds paired with reported z-score
Note: the reply should be a number with no unit written.

compound: C=C1C2CC3C(=C4C(CO[C@@H]4[C@H]4CCCN4S(=O)(=O)c4ccccc4[N+](=O)[O-])C4C(=O)N(C)C(=O)C34)CC2C(=O)N1C (stereo partly drawn)
target system: Homeobox protein Hox-A13 (Mus musculus)
z-score: -7.2
//
compound: COCCOC(=O)N1C(=O)[C@@]2(c3cc(C#CC4=CCCCC4)ccc31)[C@H](c1ccc(O)cc1)N1[C@H](c3ccccc3)[C@H](c3ccccc3)OC(=O)[C@H]1[C@@H]2C(=O)Nc1nc2ccccc2s1
target system: Homeobox protein Hox-A13 (Mus musculus)
z-score: 1.05
//
compound: COCCCNC(=O)[C@@]1(Sc2ccc(C)cc2)CC(=O)N(C2Cc3ccccc3C2)[C@@H]1c1ccc(CO)cc1I
target system: Homeobox protein Hox-A13 (Mus musculus)
z-score: -2.28
//
compound: COCCOC(=O)N1C(=O)[C@@]2(c3cc(C#CCNC(N)=O)ccc31)[C@H](C(=O)N1CCCCCCC1)[C@H]1C(=O)O[C@H](c3ccccc3)[C@H](c3ccccc3)N1[C@@H]2c1ccc(O)cc1
target system: Homeobox protein Hox-A13 (Mus musculus)
z-score: 0.172
//
compound: CC(C)C(=C=CC[C@H](O)c1ccc(OCCO)cc1)C[C@H](O)c1cc(Cl)cc(Cl)c1O
target system: Homeobox protein Hox-A13 (Mus musculus)
z-score: -1.35

Query :: Would you kindly share the measured z-score for NC(=O)NCC#Cc1ccc2c(c1)[C@]1(C(=O)N2)[C@H](c2ccc(O)cc2)N2[C@H](c3ccccc3)[C@H](c3ccccc3)OC(=O)[C@H]2[C@@H]1C(=O)Nc1nc2ccccc2s1 ?
Result :: 0.608

Query :: Would you kindly share the measured z-score for CO[C@H]1O[C@H](CO)[C@@H](OC(=O)Nc2ccc(Oc3ccccc3)cc2)[C@H](OC(=O)Nc2ccccc2-c2ccccc2)[C@@H]1OC(=O)Nc1ccccc1-c1ccccc1 ?
Result :: -1.71
